Tested on: U2OS
run-description: cell viability relative to DMSO; higher = less toxic
experimental-context: 72 h; 10 nM
Below: a set of entries, each annotated with reported cell viability.
Write the number in % without appending the unit.

Illustrative cases are given below, each with its answer.
compound="O=C(Oc1ccccc1)c1ccccc1O [phenyl-salicylate]" readout="cell viability" measured_number=100
compound="CC(C)Nc1cccnc1N1CCN(C(=O)c2cc3cc(NS(C)(=O)=O)ccc3[nH]2)CC1 [delavirdine]" readout="cell viability" measured_number=101
compound="O=C(NCCCN1CCCCCC1)C(c1ccccc1)C1CCCCC1 (centres undefined)" readout="cell viability" measured_number=101
compound="CC1CC(OC(=O)C(O)c2ccccc2)CC(C)(C)C1 (centres undefined) [cyclandelate]" readout="cell viability" measured_number=103
compound="COc1cc(OCc2cccc(-c3ccccc3)c2C)cc(OC)c1CN1CCCC[C@H]1C(=O)O [PD1-PDL-inhibitor-1]" readout="cell viability" measured_number=98.7

Q. Provide only the value of recorded cell viability for Oc1ccc2ccccc2c1SSc1c(O)ccc2ccccc12 [IPA-3]
A. 96.6

Q. Provide only the value of recorded cell viability for CC(C)(O)c1coc(S(=O)(=O)NC(=O)Nc2c3c(cc4c2CCC4)CCC3)c1 [MCC950]
A. 103

Q. Provide only the value of recorded cell viability for O=C(Nc1ccccc1)c1cc([N+](=O)[O-])ccc1Cl [GW-9662]
A. 91.7

Q. Provide only the value of recorded cell viability for C[C@H](N[C@@H](CCc1ccccc1)C(=O)O)C(=O)N1CCC[C@H]1C(=O)O [enalaprilat]
A. 97.9

---

Test system: Vero E6
run-description: cell viability relative to DMSO; higher = less toxic
experimental-context: 72 h; 1000 nM
readout: cell viability (%)
Write the number in % without appending the unit.

Illustrative cases are given below, each with its answer.
structure_notation=C[C@@H]1CN(c2c(F)c(N)c3c(=O)c(C(=O)O)cn(C4CC4)c3c2F)C[C@H](C)N1 measured_target="Vero E6" readout="cell viability" measured_number=98.6
structure_notation=N#CN=C(NCCCCCCOc1ccc(Cl)cc1)Nc1ccncc1 measured_target="Vero E6" readout="cell viability" measured_number=1.7
structure_notation=Clc1ccccc1C(c1ccccc1)(c1ccccc1)n1ccnc1 measured_target="Vero E6" readout="cell viability" measured_number=99.2
structure_notation=Cc1ccc(=O)n(-c2ccc(O)cc2)c1 measured_target="Vero E6" readout="cell viability" measured_number=99.1
structure_notation=COc1ccc2cccc(N3CCN(CCNC(=O)c4ccc(F)cc4)CC3)c2c1 measured_target="Vero E6" readout="cell viability" measured_number=94
structure_notation=O=C1NC(=S)NC(=O)C1C(=O)Nc1ccccc1 measured_target="Vero E6" readout="cell viability" measured_number=92.7
structure_notation=Nc1ncnc2c1c(-c1cccc(OCc3ccccc3)c1)cn2[C@H]1C[C@@H](CN2CCC2)C1 measured_target="Vero E6" readout="cell viability" measured_number=92.9
structure_notation=Cc1cc(Cn2nnc3c(-c4ccco4)nc(N)nc32)ccc1N measured_target="Vero E6" readout="cell viability" measured_number=92.8

Q. Provide only the value of recorded cell viability for Nc1ccc(S(=O)(=O)c2ccc(N)cc2)cc1
A. 106

Q. Provide only the value of recorded cell viability for CCS(=O)(=O)Nc1ccc2c(c1)/C(=C(/Nc1ccc(CN3CCCCC3)cc1)c1ccccc1)C(=O)N2
A. 73.2

Q. Provide only the value of recorded cell viability for CC[C@H]1[C@@H]2C[C@H]3[C@@H]4N(C)c5ccccc5[C@]45C[C@@H]([C@@H]2[C@H]5O)N3[C@@H]1O
A. 99.5

Q. Provide only the value of recorded cell viability for CCC(=O)NO
A. 97.1
